- System: Mus musculus
- Protocol details: Antinociceptive activity of subcutaneously administered compound in acetic acid (AA) induced writhing mice
- Type: functional
- Details: sc
Assay readout: ED50 (mg/kg)
Quick reminder: number only, in mg/kg, skip the unit.

Compound structure string: CC(=O)O.CCN(C(=O)CNC(=O)[C@@H](CCSC)NC(=O)[C@@H](N)Cc1ccc(O)cc1)[C@@H](Cc1ccc([N+](=O)[O-])cc1)C(N)=O
System tested: Mus musculus
Assay readout: ED50
Data value: 0.0015

Query CC(=O)O.CCN(Cc1ccc([N+](=O)[O-])cc1)C(=O)CNC(=O)[C@@H](CCCN=C(N)N)NC(=O)[C@@H](N)Cc1ccc(O)cc1 on Mus musculus; ED50 returned: 0.02

Simply: CC(=O)O.CCN(C(=O)CNC(=O)[C@@H](CCCN=C(N)N)NC(=O)[C@H](Cc1ccc(O)cc1)N=C(N)N)[C@@H](Cc1ccc(F)cc1)C(N)=O , Mus musculus, ED50 = 0.002

Sample CC(=O)O.CCN(Cc1ccccc1[N+](=O)[O-])C(=O)CNC(=O)[C@@H](CCCN=C(N)N)NC(=O)[C@@H](N)Cc1ccc(O)cc1 , system: Mus musculus. Its ED50 is 6.1

Test item CC(=O)O.CCN(Cc1ccc(F)cc1)C(=O)CNC(=O)[C@@H](CCCN=C(N)N)NC(=O)[C@H](Cc1ccc(O)cc1)N=C(N)N ; Mus musculus; reported ED50 was 0.32

Record for CC(=O)O.CCN(CCc1ccc(F)cc1)C(=O)CNC(=O)[C@@H](CCCN=C(N)N)NC(=O)[C@H](Cc1ccc(O)cc1)N=C(N)N under target or system Mus musculus: ED50 reported as 0.02

Data provenance: ChEMBL document CHEMBL1124464
